Target: T1, Human NOTUM (human, UniProt Q6P988 20-496)
T1 construct: also called human notum pectinacetylesterase; recombinant human NOTUM
T1 sequence: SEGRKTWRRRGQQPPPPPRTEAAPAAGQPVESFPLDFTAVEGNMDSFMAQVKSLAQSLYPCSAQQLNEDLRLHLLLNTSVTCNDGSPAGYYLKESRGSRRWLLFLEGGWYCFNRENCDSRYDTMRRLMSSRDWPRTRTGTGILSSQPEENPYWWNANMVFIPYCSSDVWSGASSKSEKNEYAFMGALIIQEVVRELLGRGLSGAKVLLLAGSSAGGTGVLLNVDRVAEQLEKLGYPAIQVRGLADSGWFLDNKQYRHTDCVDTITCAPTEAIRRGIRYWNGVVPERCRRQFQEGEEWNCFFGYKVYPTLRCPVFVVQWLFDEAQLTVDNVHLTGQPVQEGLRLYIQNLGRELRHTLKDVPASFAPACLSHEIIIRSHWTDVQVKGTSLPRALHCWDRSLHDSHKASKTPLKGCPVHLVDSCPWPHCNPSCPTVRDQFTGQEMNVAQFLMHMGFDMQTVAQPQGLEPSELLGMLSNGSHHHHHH
Experiment: Biacore 3000
recorded_endpoint: pKd
One number for each entry, as −log10 of the molar value.

Quick one: give measured pKd for MAb 2.78 (antibody, V domains shown, Mouse monoclonal antibody from Campaign 2 (raised against mouse NOTUM), IgG2b) VH: DVQLVESGGGLVQPGGSRKLSCAASGFTFSSFGMHWVRQAPEKGLEWVAYITSGSGAIYYADTVRGRFTISRDTPKNTLFLQMTSLRSEDTAMYYCARSADGLDYWGQGTSVTVSS VL: DIQMTQSPASLYVSVGETVTITCRASENIYSNLAWYQQKQGKSPQLLVYGATNLADGVPSRFSGSGSGTQYSLKINSLKSEDFGSYYCQHFWGTPFTFGSGTKLEIKR
7.75
